// reported S/N for each item listed
- Test system: CD28
- ASSAY_NAME: phage spot ELISA on CD28
- Type: binding
- TEST_CONTEXT: phage spot ELISA signal/noise; S3 Table sheet CD28-1 (panning campaign 1)
Kindly provide the number alone.

// worked examples, S/N included
>>> print(df.to_string())
                              residue_codes  value_measured
0  PCESIQDVWIIHDSSEECERLCRKLGVTNCRVHCG [CD28-1 clone 6, phage clone, 5JI4 library, CD28-1 panning]            2.28
1  PCECDHMQYFILYESSEECERLCRKLGVTNCRVHCG [CD28-1 clone 7, phage clone, 5JI4 library, CD28-1 panning]           2.516
2  PCEYQTWRVVIPDASSEECERLCRKLGVTNCRVHCG [CD28-1 clone 3, phage clone, 5JI4 library, CD28-1 panning]           4.407

The value of S/N measured for the sequence PRECDEDNIWIIANSSEECERLCRKLGVTNCRVHCG [CD28-1 clone 9, phage clone, 5JI4 library, CD28-1 panning] turned out to be 1.511

The value of S/N measured for the sequence PCECDVNGETYTVSSSEGCERLCSWDTRRMCRVHCG [CD28-1 clone 14, phage clone, 5JI4 library, CD28-1 panning] turned out to be 2.852

The value of S/N measured for the sequence PYECWRGQYFIIYKSSEECERLCRKLGVTNCRVHCG [CD28-1 clone 11, phage clone, 5JI4 library, CD28-1 panning] turned out to be 2.209

The value of S/N measured for the sequence PCEFARQNVFIVHSSSEECERLCRTLGVTNCRVHCG [CD28-1 clone 8, phage clone, 5JI4 library, CD28-1 panning] turned out to be 1.6194

The value of S/N measured for the sequence PCECDVNGETYTVSSSEECERPCSWNEAFSCRVHCG [CD28-1 clone 15, phage clone, 5JI4 library, CD28-1 panning] turned out to be 2.576

The value of S/N measured for the sequence PCECDVNGETYTVSSSEGCERLCSWDQGKWCRVHCG [CD28-1 clone 13, phage clone, 5JI4 library, CD28-1 panning] turned out to be 2.33
